Each recorded value in this set is attributed to paper PMC9090415.

Exercise: state measured % inhibition apPOL 180' for each of the compounds provided.
testSystem: UniProtKB Q8ILY1
Sequence (Q8ILY1 entry or part of it): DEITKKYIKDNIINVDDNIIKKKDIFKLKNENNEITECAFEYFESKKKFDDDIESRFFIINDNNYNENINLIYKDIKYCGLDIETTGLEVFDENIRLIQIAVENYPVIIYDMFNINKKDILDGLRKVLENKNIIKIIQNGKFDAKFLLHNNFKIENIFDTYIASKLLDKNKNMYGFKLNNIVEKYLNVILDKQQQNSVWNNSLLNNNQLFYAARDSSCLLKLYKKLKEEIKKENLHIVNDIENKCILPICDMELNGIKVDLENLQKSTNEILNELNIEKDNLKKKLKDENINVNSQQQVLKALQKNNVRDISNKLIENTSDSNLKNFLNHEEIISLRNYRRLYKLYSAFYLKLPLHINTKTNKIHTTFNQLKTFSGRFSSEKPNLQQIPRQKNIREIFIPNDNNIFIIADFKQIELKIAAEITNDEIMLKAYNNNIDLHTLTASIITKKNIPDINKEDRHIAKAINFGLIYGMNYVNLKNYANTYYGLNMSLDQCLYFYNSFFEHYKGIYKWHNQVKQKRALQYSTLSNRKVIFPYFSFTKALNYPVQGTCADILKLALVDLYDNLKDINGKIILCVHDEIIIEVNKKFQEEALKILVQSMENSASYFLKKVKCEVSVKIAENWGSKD
experimentSummary: Fluorescence-based high-throughput DNA polymerase assay (molecular beacon), primary screen and dose-response;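 also: test concentration in µM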
Format: biochemical
settings: DRC-2; 180'; concentration 80
Answer format reminder: number followed by unit.

Short answer please: % inhibition apPOL 180', UniProtKB Q8ILY1, entry `COCCN(CCOC)Cc1c(O)ccc2c1OC(=Cc1cc(Br)ccc1OC)C2=O`
85%

Short answer please: % inhibition apPOL 180', UniProtKB Q8ILY1, entry `O=C(O)c1ccc(-c2nc3cc(-c4ccc5nc(-c6ccc(C(=O)O)cc6)[nH]c5c4)ccc3[nH]2)cc1`
49%

Short answer please: % inhibition apPOL 180', UniProtKB Q8ILY1, entry C#CC(C=CC)OC(=O)c1ccccc1C(=O)O (centres unmarked)
69%

Short answer please: % inhibition apPOL 180', UniProtKB Q8ILY1, entry `O=C(O)CCS(=O)(=O)c1ccc(-c2ccc(S(=O)(=O)CCC(=O)O)cc2)cc1`
64%

Short answer please: % inhibition apPOL 180', UniProtKB Q8ILY1, entry CCCCSc1nnc2c(n1)OC(c1ccc([N+](=O)[O-])o1)Nc1ccccc1-2 (centres unmarked)
58%

Short answer please: % inhibition apPOL 180', UniProtKB Q8ILY1, entry `CC(C)(C)c1cc(C(=O)C(C#N)=NNc2cccc(Cl)c2)no1`
81%

Short answer please: % inhibition apPOL 180', UniProtKB Q8ILY1, entry `Cc1ccc(C)n1-c1ccc(C(=O)NNC(=O)c2ccc3nccnc3c2)cc1`
73%

Short answer please: % inhibition apPOL 180', UniProtKB Q8ILY1, entry `Cn1nc(-c2nnc(-c3ccccc3F)o2)c2c1CCN(C(=O)c1ccccc1Cl)C2`
52%
